# TARGET_DESC: 2-Hydroxyacid oxidase 2 (Homo sapiens) (UniProt Q9NYQ3)
# Sequence (Q9NYQ3 whole entry): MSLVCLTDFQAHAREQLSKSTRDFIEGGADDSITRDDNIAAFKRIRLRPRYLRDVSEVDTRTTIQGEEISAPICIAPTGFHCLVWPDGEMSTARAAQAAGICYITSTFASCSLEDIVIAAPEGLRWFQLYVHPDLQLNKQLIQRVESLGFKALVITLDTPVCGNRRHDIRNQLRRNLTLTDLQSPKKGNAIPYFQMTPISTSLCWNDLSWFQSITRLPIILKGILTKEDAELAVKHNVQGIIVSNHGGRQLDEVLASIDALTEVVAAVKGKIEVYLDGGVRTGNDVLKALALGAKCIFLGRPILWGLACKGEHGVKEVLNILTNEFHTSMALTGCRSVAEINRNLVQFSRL
# MEASUREMENT_DESCRIPTION: Inhibition of human Hao2-mediated oxidation of 2-hydroxyoctanoic acid assessed as proportionate release of H2O2 at 10 uM
MEASUREMENT_TYPE: inhibition (%)
Respond numerically; units are % and should not be typed.

Supply reported inhibition belonging to this compound: Cc1n[nH]c(C(=O)O)c1Cc1cccc(-c2ccc(C(=O)O)cc2)c1
15

Find the measured inhibition of Cc1n[nH]c(C(=O)O)c1Cc1cccc(C(=O)O)c1 and report it.
0

Note inhibition for the compound shown: Cc1n[nH]c(C(=O)O)c1CCc1cccc(-c2ccc(F)cc2)c1
45

Give inhibition for Cc1n[nH]c(C(=O)O)c1Cc1cccc(Oc2ccccc2)c1
41

Quickly give me recorded inhibition for CCc1n[nH]c(C(=O)O)c1Cc1cccc(-c2ccc(F)cc2)c1
36

Give the reported value of inhibition for this record: CCOc1n[nH]c(C(=O)O)c1Cc1cccc(-c2ccc(F)cc2)c1
17

Give recorded inhibition. Cc1n[nH]c(C(=O)Nc2nnn[nH]2)c1Cc1cccc(-c2ccc(F)cc2)c1
0

Quickly give me recorded inhibition for Cc1n[nH]c(C(=O)O)c1Cc1cccc(-c2cccc(F)c2)c1
50

Read off the recorded inhibition for Cc1n[nH]c(C(=O)O)c1Cc1cccc2ccccc12
59

Give the reported inhibition for this compound. Cc1n[nH]c(C(=O)O)c1Cc1cccc(C(F)(F)F)c1
23

Provide measured inhibition value, entry: Cc1n[nH]c(C(=O)O)c1Cc1cccc(-c2ccc(C(F)(F)F)cc2)c1
30

Entry Cc1n[nH]c(C(=O)O)c1Cc1cccc(F)c1 needs its inhibition filled in; supply it.
13

Determine its reported inhibition: Cc1n[nH]c(C(=O)O)c1Cc1ccccc1-c1ccc(F)cc1
56

Determine from records and report inhibition for Cc1n[nH]c(C(=O)O)c1Cc1ccc(-c2ccc(OC(F)(F)F)cc2)cc1
29
